experimental_system: Ubiquitin carboxyl-terminal hydrolase 8 (Homo sapiens) (UniProt P40818)
Sequence (P40818 whole entry, looked up): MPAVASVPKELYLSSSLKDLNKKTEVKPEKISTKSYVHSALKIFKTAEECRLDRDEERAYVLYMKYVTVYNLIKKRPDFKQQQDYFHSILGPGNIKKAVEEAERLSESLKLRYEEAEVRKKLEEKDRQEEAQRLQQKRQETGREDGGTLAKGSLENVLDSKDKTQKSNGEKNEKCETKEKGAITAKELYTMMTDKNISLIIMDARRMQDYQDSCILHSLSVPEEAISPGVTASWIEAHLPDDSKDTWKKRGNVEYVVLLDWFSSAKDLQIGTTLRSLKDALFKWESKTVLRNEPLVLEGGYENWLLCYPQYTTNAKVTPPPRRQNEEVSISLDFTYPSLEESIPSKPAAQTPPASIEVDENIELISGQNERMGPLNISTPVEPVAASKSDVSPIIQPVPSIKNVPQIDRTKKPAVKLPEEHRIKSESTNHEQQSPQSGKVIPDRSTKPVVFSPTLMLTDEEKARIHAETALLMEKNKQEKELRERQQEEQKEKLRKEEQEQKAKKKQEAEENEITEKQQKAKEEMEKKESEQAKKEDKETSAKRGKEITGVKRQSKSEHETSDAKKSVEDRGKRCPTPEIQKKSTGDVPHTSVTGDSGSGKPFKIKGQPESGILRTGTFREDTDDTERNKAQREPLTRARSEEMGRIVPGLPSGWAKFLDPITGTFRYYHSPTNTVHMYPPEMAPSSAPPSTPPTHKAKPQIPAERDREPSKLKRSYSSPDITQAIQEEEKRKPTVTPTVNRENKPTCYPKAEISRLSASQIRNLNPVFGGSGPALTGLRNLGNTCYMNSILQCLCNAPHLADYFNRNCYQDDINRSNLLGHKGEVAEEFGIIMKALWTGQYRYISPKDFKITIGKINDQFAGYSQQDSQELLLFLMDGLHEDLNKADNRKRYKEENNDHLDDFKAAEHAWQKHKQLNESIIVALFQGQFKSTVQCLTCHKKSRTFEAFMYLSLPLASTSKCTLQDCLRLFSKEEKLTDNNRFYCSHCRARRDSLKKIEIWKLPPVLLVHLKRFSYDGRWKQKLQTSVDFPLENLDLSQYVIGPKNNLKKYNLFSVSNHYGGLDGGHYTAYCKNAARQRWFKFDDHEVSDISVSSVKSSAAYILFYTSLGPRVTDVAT
protocol_summary: Ubiquitin-specific protease 8 inhibitors, concentration-effect, biochemical, validation of initial actives (AID 1645862);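 note: potency reflects inhibition of USP8 cleavage of a ubiquitin rhodamine substrate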
condition_description: recombinant USP8 deubiquitinase activity assay
Active and inactive are the calls of the source. The rule behind the calls is not given here.
The reply should name one outcome from active, inactive

Example results:
- compound: "COc1cc(OC)c(NC(=O)Cn2c(=O)n(Cc3ccccc3Cl)c(=O)c3cc(OC)c(OC)cc32)cc1Cl"
  assigned_class: "inactive"
- compound: "O=C(CCCCn1c(=O)c2ccccc2n(CC(=O)Nc2ccc3c(c2)OCCO3)c1=O)NCc1ccco1"
  assigned_class: "inactive"
- compound: "CSc1nc(NCc2ccccc2)c2sc3nc(N4CCOCC4)c4c(c3c2n1)CC(C)(C)OC4"
  assigned_class: "inactive"

// query Kindly provide the recorded test outcome for the following compound: Cn1c(=O)[nH]c(=O)c2c1nc(N1CCc3ccccc3C1)n2CCSc1nnnn1-c1ccccc1
// result inactive

// query Kindly provide the recorded test outcome for the following compound: COc1cccc(NC(=O)Cn2cc(C(=O)c3ccc(C)cc3)c(=O)c3cc(Cl)ccc32)c1
// result active

// query Kindly provide the recorded test outcome for the following compound: COc1cn(-c2ccc(F)cc2)nc1C(=O)Nc1ccc(Cl)cc1Cl
// result active

// query Kindly provide the recorded test outcome for the following compound: COCCCNC(=O)c1ccc(Cn2c(=O)c3ccccc3n(CC(=O)Nc3ccc4c(c3)OCCO4)c2=O)cc1
// result inactive

// query Kindly provide the recorded test outcome for the following compound: CCc1ccc(S(=O)(=O)Nc2ccc(-c3nnc(-c4ccccc4)o3)cc2)cc1
// result inactive

###

experimental_system: Ubiquitin carboxyl-terminal hydrolase 8 (Homo sapiens)
protocol_summary: Ubiquitin-specific protease 8 inhibitors, concentration-effect, biochemical, validation of initial actives (AID 1645862);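 note: potency reflects inhibition of USP8 cleavage of a ubiquitin rhodamine substrate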
condition_description: recombinant USP8 deubiquitinase activity assay
Calls of active or inactive are those of the source. No rule for the calls is given here.
The reply should name one outcome from active, inactive

- chemical_string: "COc1ccc(NC(=O)Cn2cc(C(=O)c3ccc(F)cc3)c(=O)c3cc(C)ccc32)cc1OC"
  experimental_system: "Ubiquitin carboxyl-terminal hydrolase 8 (Homo sapiens)"
  assigned_class: "inactive"
- chemical_string: "O=C(/C=C/c1ccc(F)cc1)N1CCc2ccccc2C1"
  experimental_system: "Ubiquitin carboxyl-terminal hydrolase 8 (Homo sapiens)"
  assigned_class: "active"
- chemical_string: "Cc1ccc(-c2n[nH]n3c2nc(=O)c2ccc(C(=O)NC4CCCCC4)cc23)cc1"
  experimental_system: "Ubiquitin carboxyl-terminal hydrolase 8 (Homo sapiens)"
  assigned_class: "inactive"

// query Kindly provide the recorded test outcome for the following compound: CCOc1ccc2[nH]c(=O)c(-c3nc4ccc(C)cn4c3NCc3ccccc3)cc2c1
// result inactive

// query Kindly provide the recorded test outcome for the following compound: COc1ccc(-c2cc3nc([C@H](C)NC(=O)Cc4cccc(F)c4)nn3cn2)cc1
// result inactive

// query Kindly provide the recorded test outcome for the following compound: O=C(CSc1nc2c(cnn2-c2ccccc2)c(=O)[nH]1)Nc1ccc(Cl)cc1F
// result active

// query Kindly provide the recorded test outcome for the following compound: Cc1noc(-c2cc(=O)n(CC(=O)Nc3ccccc3Cl)c3ccccc23)n1
// result inactive

// query Kindly provide the recorded test outcome for the following compound: Cc1ccc(-c2cnc(C3CC3)o2)cc1S(=O)(=O)Nc1ccc(F)c(Cl)c1
// result inactive

// query Kindly provide the recorded test outcome for the following compound: Cc1cc(-c2ccc(S(=O)(=O)NCc3ccc(Cl)cc3)s2)on1
// result inactive

// query Kindly provide the recorded test outcome for the following compound: COc1ccc(-c2cc3c(=O)n(CC(=O)Nc4ccccc4C)ccn3n2)cc1
// result inactive
